Assay: qHTS of pediatric cancer cell lines to identify multiple opportunities for drug repurposing: Primary screen for SJ-GBM2 cells (AID 1347091)
Details: SJ-GBM2 viability, CellTiter-Glo luminescence, 48 h; series mostly up to 46 µM
Procedure: Drug repurposing or repositioning has been offered as a strategy for drug development in oncology programs. […] [1] Shen, M et al. Quantitative high-throughput phenotypic screening of pediatric cancer cell lines identifies multiple opportunities for drug repurposing. […] Cells were assayed in growth media at a density of 500-1,000 cells/well. […] After a 15 min incubation at room temperature, samples were analyzed for luminescence intensity using a ViewLux High-throughput CCD imager equipped with clear filters.
Results filed as inconclusive are left out. Active and inactive are the calls of the source. Calls come from the whole dose curve; as a rule, active = well fitted cell-killing curve with a large enough effect; inconclusive = small, poorly fitted or top-dose-only effect; inactive = no such curve, though single readings can be large or run the other way.
Classes used: active, inactive

molecule | assigned_category
O[C@@H](COc1cccc2ncccc12)CN1CCN(C2c3ccccc3[C@@H]3[C@H](c4ccccc42)C3(F)F)CC1 (some centres undefined) | active
CCOC(=O)[C@H](CCc1ccccc1)N[C@@H](C)C(=O)N1CCCC1C(=O)O (some centres undefined) | inactive
COc1nc(C)cnc1NS(=O)(=O)c1cccnc1-c1ccc(-c2nnco2)cc1 | inactive
C[C@@H]1CC=CC=CC=CC=C[C@@H](O[C@@H]2O[C@H](C)[C@@H](O)[C@H](N)[C@H]2O)C[C@@H]2O[C@](O)(C[C@@H](O)C[C@@H]3O[C@@H]3C=CC(=O)O1)C[C@H](O)[C@@H]2C(=O)O | inactive

---

Assay: Quantitative High-Throughput drug screen in 47 multiple myeloma cell lines against the NCATS MIPE library collection: L363_DSMZ cell viability assay (AID 1918984); note: nearly all actives have a fitted effect of over 40% in size
Conditions: L363 myeloma viability, CellTiter-Glo ATP luminescence, 48 h
Results filed as inconclusive are left out. Active and inactive are the calls of the source. The call rests on the fitted dose curve; in most records, active means well fitted cell-killing curve with a large enough effect; inconclusive means small, poorly fitted or top-dose-only effect, or effect the other way; inactive means no such curve, though single readings can be large or run the other way.
Classes used: 1 (yes) for active, 0 (no) for inactive

compound | assigned_category
NC1(C(=O)N[C@@H](CCO)c2ccc(Cl)cc2)CCN(c2ncnc3[nH]ccc23)CC1 | 1 (yes)
O=C1CCCC(=O)C1C(=O)c1ccc(C(F)(F)F)cc1[N+](=O)[O-] | 0 (no)
CCCCCCCCCCCCCC(=O)N[C@H](CO)[C@H](O)c1ccc([N+](=O)[O-])cc1 | 1 (yes)
CC1=C(C(=O)Nc2cc3cn[nH]c3cc2F)C(c2ccc(C(F)(F)F)cc2)CC(=O)N1 (stereo not drawn) | 0 (no)
CCOC(=O)N1c2ccc(C(F)(F)F)cc2[C@@H](N(Cc2cc(C(F)(F)F)cc(C(F)(F)F)c2)C(=O)OC)C[C@H]1CC | 0 (no)
Cc1cccc(-c2[nH]c(C(C)(C)C)nc2-c2ccc3c(c2)OCO3)n1 | 1 (yes)
OC[C@H]1O[C@@H](OCCc2ccc(O)cc2)[C@H](O)[C@@H](O)[C@H]1O | 0 (no)
COc1c(C)cnc(Cn2cnc3c(Cl)nc(N)nc32)c1C | 1 (yes)
O=C(CCCN1CCN(c2ccc(F)cc2)CC1)NC1c2ccccc2CSc2ccccc21 (stereo not drawn) | 1 (yes)
Nc1ncnc2c1c(-c1cccc(OCc3ccccc3)c1)cn2C1CC(CN2CCC2)C1 (stereo not drawn) | 1 (yes)
O=C(O)c1ccc(O)c2ncc(N3CCOCC3)cc12 | 1 (yes)
CCNC(=O)CCCC=CC[C@@H]1[C@H](C=CC(O)CCc2ccccc2)[C@@H](O)C[C@@H]1O (stereo partly drawn) | 0 (no)
C[C@@H]1O[C@@H](O[C@H]2CC[C@@]3(C)[C@H](CC[C@@H]4[C@H]3C[C@@H](O)[C@]3(C)[C@@H](C5=CC(=O)OC5)CC[C@]43O)C2)C[C@H](O)[C@@H]1O[C@H]1C[C@H](O)[C@H](O[C@H]2C[C@H](O)[C@@H](O)[C@@H](C)O2)[C@H](C)O1 (stereo in doubt) | 1 (yes)
CCCCn1c(=O)n(Cc2ccccc2F)c(=O)c2[nH]c(Cc3ccc(NC(C)=O)cc3)nc21 | 0 (no)
C=C[C@@H]1CN2CCC1C[C@@H]2C(O)c1ccnc2ccc(OC)cc12 (stereo partly drawn) | 0 (no)
CC(C)N(CCCNC(=O)Nc1ccc(C(C)(C)C)cc1)C[C@H]1O[C@@H](n2cc(Br)c3c(N)ncnc32)[C@H](O)[C@H]1O | 0 (no)
CN1CC(=O)N2C(Cc3c([nH]c4ccccc34)[C@H]2c2ccc3c(c2)OCO3)C1=O (stereo partly drawn) | 0 (no)
Fc1ccc(CNc2ncnc3ccc(F)cc23)cc1 | 1 (yes)

---

Assay: Primary qHTS for small molecule stabilizers of the endoplasmic reticulum resident proteome: Secreted ER Calcium Modulated Protein (SERCaMP) assay (AID 1508630)
Conditions: SH-SY5Y GLuc-SERCaMP (Gaussia luciferase released on ER calcium loss) secretion, thapsigargin, luminescence; series mostly up to 38.4 µM
Records with an inconclusive call do not appear. The source made the active and inactive calls. The call rests on the fitted dose curve; in most records, active means well fitted inhibition curve with a large enough effect; inconclusive means small, poorly fitted or top-dose-only effect; inactive means no such curve, though single readings can be large or run the other way.
Labels: y for active, n for inactive

molecule | assigned_category
C[C@@H]1O[C@@H](O[C@H]2CC[C@@]3(C)[C@H](CC[C@@H]4[C@H]3C[C@@H](O)[C@]3(C)[C@@H](C5=CC(=O)OC5)CC[C@]43O)C2)C[C@H](O)[C@@H]1O[C@H]1C[C@H](O)[C@H](O[C@H]2C[C@H](O)[C@@H](O)[C@@H](C)O2)[C@H](C)O1 (stereo in doubt) | n
N#CC(=C1Nc2ccccc2S1)c1ccnc(OCc2ccc(CN3CCOCC3)cc2)n1 | y
C=CCc1cccc(C=NNC(=O)CN2CCN(Cc3ccccc3)CC2)c1O | n

---

Assay: Quantitative High-Throughput drug screen in 47 multiple myeloma cell lines against the NCATS MIPE library collection: RPMI8226_ATCC cell viability assay (AID 1919871); note: nearly all actives have a fitted effect of over 30% in size; note: potency is the fitted concentration of half-maximal effect
Conditions: RPMI8226 myeloma viability, CellTiter-Glo ATP luminescence, 48 h; series mostly up to 45.8 µM
Inconclusive results are not listed. Active and inactive are the calls of the source. The call rests on the fitted dose curve; in most records, active means well fitted cell-killing curve with a large enough effect; inconclusive means small, poorly fitted or top-dose-only effect, or effect the other way; inactive means no such curve, though single readings can be large or run the other way.
attribute_measured: Potency

compound | attribute_measured | obs_value
CC[C@H](CC#N)OC(=O)N[C@@H](C)c1cccc(NC(=O)Nc2ccc(-c3cnco3)c(OC)c2)c1 | Potency | 2.64 µM (active)
CCOC(=O)c1c(CSc2ccccc2)n(C)c2cc(Br)c(O)c(CN(C)C)c12 | Potency | 11.8 µM (active)
CN1C(=O)C(Cc2c[nH]c3ccccc23)NC1=S (centres undefined) | Potency | inactive
C[C@@H](O)[C@H]1C(=O)N2C(C(=O)OCOC(=O)C(C)(C)C)=C(SC3CN(C4=NCCS4)C3)[C@H](C)[C@H]12 | Potency | inactive
CNC1CCC(N(Cc2cccc(-c3ccncc3)c2)C(=O)c2sc3ccccc3c2Cl)CC1 (centres undefined) | Potency | 26.4 µM (active)
NC(N)=Nc1nc(CSCCC(N)=NS(N)(=O)=O)cs1 | Potency | inactive
CC(C)n1c(C=C[C@H](O)C[C@H](O)CC(=O)O)c(-c2ccc(F)cc2)c2ccccc21 | Potency | 18.7 µM (active)
C=C1[C@H](n2cnc3c(=O)[nH]c(N)nc32)C[C@H](O)[C@H]1CO | Potency | inactive
OC[C@H]1O[C@@H](OCCc2ccc(O)cc2)[C@H](O)[C@@H](O)[C@H]1O | Potency | inactive
N#CC(=C1Nc2ccccc2S1)c1ccnc(OCc2ccc(CN3CCOCC3)cc2)n1 | Potency | 20.9 µM (active)
Cc1ccc(NC(=O)c2ccc(CN3CCN(C)CC3)cc2)cc1Nc1nc(-c2cccnc2)cs1 | Potency | 18.7 µM (active)
O=C1Nc2ccc(I)cc2C1=Cc1cc(Br)c(O)c(Br)c1 | Potency | inactive
CS(=O)(=O)c1ccc(C2=C(c3ccccc3)C(=O)OC2)cc1 | Potency | inactive
Cc1ccc2c(=O)c3cccc(CC(=O)O)c3oc2c1C | Potency | inactive
CN1CC(=O)NC1=NC(=O)Nc1cccc(Cl)c1 | Potency | 14.8 µM (active)
CN(C)N=Nc1nc[nH]c1C(N)=O | Potency | inactive
CN(C)c1nc(Cc2ccc(NC(=O)c3ccc(C(F)(F)F)cc3)cc2)nc(N(C)C)c1CC(=O)O | Potency | 6.62 µM (active)
CCOC(=O)[C@H](CCc1ccccc1)N[C@@H](C)C(=O)N1CCCC1C(=O)O (some centres undefined) | Potency | inactive
C[C@@H](NC(=O)c1ncnc(N)c1Cl)c1ncc(C(=O)Nc2cc(C(F)(F)F)c(Cl)cn2)s1 | Potency | 13.2 µM (active)
O=C(Nc1cccc(Cl)c1)Nc1ncc(CCNc2ncnc3ccsc23)s1 | Potency | 5.9 µM (active)
CCOc1ccccc1N=Nc1c(C)[nH]n(-c2nc(-c3ccccc3)cs2)c1=O | Potency | 2.35 µM (active)
Nc1ccn([C@@H]2O[C@H](CO)[C@@H](O)[C@H]2O)c(=O)n1 | Potency | inactive
CNC1[C@H](O)C(O[C@@H]2C(O)C(O[C@H]3O[C@H]([C@@H](C)NC)CC[C@H]3N)[C@@H](N)C[C@H]2N)OC[C@]1(C)O (some centres undefined) | Potency | inactive
CC(=O)NCCC(=O)N[C@@H](CCC(N)=O)C(=O)N[C@@H](CO)C(=O)N[C@@H](CCC(N)=O)C(=O)N[C@@H](CCC(N)=O)C(=O)N[C@H](C(=O)N[C@@H](Cc1ccccc1)C(=O)N[C@]1(C)CCCCCCC=CCCC[C@@](C)(C(=O)N[C@@H](CCC(N)=O)C(=O)N[C@@H](CC(N)=O)C(N)=O)NC(=O)[C@H](CC(C)C)NC(=O)[C@H](CC(C)C)NC(=O)[C@@H](CCCNC(=N)N)NC(=O)[C@H](Cc2c[nH]c3ccccc23)NC(=O)[C@H](CC(C)C)NC(=O)[C@H](CC(N)=O)NC1=O)[C@H](C)O | Potency | 9.35 µM (active)
NC(=O)c1ccc(N(C(N)=O)c2c(F)cccc2F)nc1-c1ccc(F)cc1F | Potency | inactive
CCC(=O)NCC[C@@H]1CCc2ccc3c(c21)CCO3 | Potency | inactive
CC(C)(OCc1nn(Cc2ccccc2)c2ccccc12)C(=O)O | Potency | inactive
CCN(CC)CCCCNc1nc2cc(Cl)c(Cl)cc2nc1-c1ccc(-c2cccs2)s1 | Potency | 10.5 µM (active)
CC(C)c1c(C(=O)Nc2ccccc2)c(-c2ccccc2)c(-c2ccc(F)cc2)n1CC[C@H](O)C[C@@H](O)CC(=O)O | Potency | 10.5 µM (active)
CN(C(Cc1ccc(OS(=O)(=O)c2cccc3cnccc23)cc1)C(=O)N1CCN(c2ccccc2)CC1)S(=O)(=O)c1cccc2cnccc12 (centres undefined) | Potency | 5.26 µM (active)
O=C(CO)N1CCC(c2[nH]nc(-c3ccc(Cl)cc3)c2-c2ccncn2)CC1 | Potency | inactive
CCCCCCOC(=O)N=C(N)c1ccc(NCc2nc3cc(C(=O)N(CCC(=O)OCC)c4ccccn4)ccc3n2C)cc1 | Potency | 18.7 µM (active)
O=C(O)C1=CO[C@@H](O[C@@H]2O[C@H](CO)[C@H](O)[C@H](O)[C@H]2O)[C@@H]2C(CO)=CC[C@H]12 | Potency | 4.18 µM (active)
COc1cc2c(cc1OC)CC(=O)N(CCCN(C)C[C@H]1Cc3cc(OC)c(OC)cc31)CC2 | Potency | 11.8 µM (active)
